- assay.notes: Phase 1 Stage 1 clinical pharmacokinetics of SC ZA co-administered with rHuPH20
- Format: in vivo, human
- recorded.conditions: human, serum, sc, […], Subj 11; ZA […] SC; inf 0.554 hr; PH20 23928 U; read-out: Tmax
test.readout: Tmax (h)
Hi! Could you send only the number? It should be in h, unit omitted.

Q) Name the recorded Tmax for "O=P(O)(O)C(O)(Cn1ccnc1)P(=O)(O)O" .
A) 1.25

---

- assay.notes: Phase 1 Stage 1 clinical pharmacokinetics of SC ZA co-administered with rHuPH20
- Format: in vivo, human
- recorded.conditions: human, serum, sc, 0.0339 mg/kg, Subj 29; ZA 0.0339 mg/kg SC; inf 0.556 hr; PH20 24000 U; read-out: Tmax
test.readout: Tmax (h)
The answer is to be given in h; state only the numeric part.

Q) Quick one: Tmax for O=P(O)(O)C(O)(Cn1ccnc1)P(=O)(O)O [ZA] ?
A) 1.29

---

- assay.notes: Pharmacokinetics of ZA in pig serum after IV or SC infusion with or without rHuPH20 (LC-MS-MS, non-compartmental analysis)
- Assay type: in vivo
- recorded.conditions: female, Yorkshire, pig, serum, subcutaneous, […], Time 0.333 h; pig ID 70; Study Group 2; SC; ZA […]; 10 mL, 1.6 min; rHuPH20 0 U/mL; read-out: Zoledronic Acid Serum Concentration
test.readout: concentration at 0.333 h (ng/mL)
Note: unit ng/mL is implicit; provide only the numeric part.

Q) Any idea what concentration at 0.333 h was measured for O=P(O)(O)C(O)(Cn1ccnc1)P(=O)(O)O [ZA] ?
A) 233

---

- assay.notes: Pharmacokinetics of ZA in pig serum after IV or SC infusion with or without rHuPH20 (LC-MS-MS, non-compartmental analysis)
- Assay type: in vivo
- recorded.conditions: female, Yorkshire, pig, serum, subcutaneous, […], pig 64, Study Group 3, SC, ZA […], rHuPH20 10000 U/mL, 100 mL over 16 min, time 0.333 h; read-out: Zoledronic Acid Serum Concentration
test.readout: concentration at 0.333 h

Q) Any idea what its concentration at 0.333 h is? The compound is "O=P(O)(O)C(O)(Cn1ccnc1)P(=O)(O)O"
A) 253 ng/mL

---

- assay.notes: Phase 1 Stage 1 clinical pharmacokinetics of SC ZA co-administered with rHuPH20
- Format: in vivo, human
- recorded.conditions: human, serum, sc, ZA 5 mg SC + 24000 U rHuPH20; individual subjects
test.readout: Cmax (ng/mL)
Lab book: enter the figure in ng/mL, no units written.

Q) Please give the measured Cmax for this compound: O=P(O)(O)C(O)(Cn1ccnc1)P(=O)(O)O [ZA]
A) 131

---

- assay.notes: Pharmacokinetics of ZA in pig serum after IV or SC infusion with or without rHuPH20 (LC-MS-MS, non-compartmental analysis)
- Type: in vivo
- recorded.conditions: female, Yorkshire, pig, serum, subcutaneous, […], Time 1 h; pig ID 69; Study Group 2; SC; ZA […]; 25 mL, 4 min; rHuPH20 0 U/mL; read-out: Zoledronic Acid Serum Concentration
test.readout: concentration at 1 h (ng/mL)
Note: unit ng/mL is implicit; provide only the numeric part.

Q) Item "O=P(O)(O)C(O)(Cn1ccnc1)P(=O)(O)O" has what recorded concentration at 1 h?
A) 74.6

---

- assay.notes: Phase 1 Stage 1 clinical pharmacokinetics of SC ZA co-administered with rHuPH20
- Type: in vivo, human
- recorded.conditions: human, serum, sc, 0.0339 mg/kg, AUC (0-24 h), Subj 29; ZA 0.0339 mg/kg SC; inf 0.556 hr; PH20 24000 U
test.readout: AUC(0-t) (ng·h/mL)
Value expressed in ng·h/mL; do not type the unit.

Q) # lookup: AUC(0-t) of O=P(O)(O)C(O)(Cn1ccnc1)P(=O)(O)O [ZA]
A) 231

---

- assay.notes: Phase 1 Stage 1 clinical pharmacokinetics of SC ZA co-administered with rHuPH20
- Assay type: in vivo, human
- recorded.conditions: human, serum, sc, 0.0781 mg/kg, AUC (0-48 h), Subj 71; ZA 0.0781 mg/kg SC; inf […]; PH20 6000 U
test.readout: AUC(0-t) (ng·h/mL)
Write the answer as a number in ng·h/mL, unit excluded.

Q) # lookup: AUC(0-t) of "O=P(O)(O)C(O)(Cn1ccnc1)P(=O)(O)O"
A) 665

---

- assay.notes: Pharmacokinetics of ZA in pig serum after IV or SC infusion with or without rHuPH20 (LC-MS-MS, non-compartmental analysis)
- Format: in vivo
- recorded.conditions: female, Yorkshire, pig, serum, sc, […], pig 60; SC ZA […], 100 mL over 16 min, no rHuPH20; read-out: Vz/F
test.readout: Vd/F (L/kg)
Note: unit L/kg is implicit; provide only the numeric part.

Q) Would you mind telling me what Vd/F value was observed for "O=P(O)(O)C(O)(Cn1ccnc1)P(=O)(O)O" ?
A) 0.524

---

- assay.notes: Phase 1 Stage 1 clinical pharmacokinetics of SC ZA co-administered with rHuPH20
- Format: in vivo, human
- recorded.conditions: human, serum, sc, 0.0791 mg/kg, Subj 37; ZA 0.0791 mg/kg SC; inf 0.556 hr; PH20 24000 U; read-out: AUC (0-inf)
test.readout: AUC(0-inf) (ng·h/mL)
I only need the number, in ng·h/mL, no unit after it.

Q) Dear colleague, I am looking for the recorded AUC(0-inf) of the following compound: "O=P(O)(O)C(O)(Cn1ccnc1)P(=O)(O)O"
A) 620

---

- assay.notes: Phase 1 Stage 1 clinical pharmacokinetics of SC ZA co-administered with rHuPH20
- Assay type: in vivo, human
- recorded.conditions: human, serum, sc, serum; ZA 2 mg SC infusion + 24000 Units rHuPH20; 0 h post infusion; n=3; read-out: Mean Conc.
test.readout: concentration at 0 h (ng/mL)
Write the number in ng/mL without appending the unit.

Q) Requested read-out: concentration at 0 h. Entry: "O=P(O)(O)C(O)(Cn1ccnc1)P(=O)(O)O"
A) 37.9

---

- assay.notes: Phase 1 Stage 1 clinical pharmacokinetics of SC ZA co-administered with rHuPH20
- Assay type: in vivo, human
- recorded.conditions: human, serum, sc, AUC (0-12h), ZA 1 mg SC + 24000 U rHuPH20; mean, n=3
test.readout: AUC(0-t) (ng·h/mL)
The reply should contain only the number, in ng·h/mL.

Q) Name the reported AUC(0-t) value associated with the compound "O=P(O)(O)C(O)(Cn1ccnc1)P(=O)(O)O"
A) 115

---

- assay.notes: Phase 1 Stage 1 clinical pharmacokinetics of SC ZA co-administered with rHuPH20
- Type: in vivo, human
- recorded.conditions: human, serum, sc, serum; ZA 2 mg SC infusion + 24000 Units rHuPH20; 24 h post infusion; n=3; read-out: Median Conc.
- Experimental: A pharmacokinetic study of zoledronic acid (ZA) co-administered with rHuPH20 in human subjects was conducted. […] Serum concentration of ZA was determined using a qualified LC-MS-MS assay after derivatization with diazomethane (Zhu, L S et al. (2006) Rapid Commun. […] The assay range was from 2.0 to 400 ng/mL with a lower limit of quantitation (LLOQ) at 2.0 ng/mL. […] Summary statistics (mean, standard deviation, and median) were calculated using JMP or Microsoft Excel.
test.readout: concentration at 24 h (ng/mL)
// units = ng/mL; emit number, no label

Q) # get_value(readout='concentration at 24 h', item= "O=P(O)(O)C(O)(Cn1ccnc1)P(=O)(O)O" )
A) 0.85

---

- assay.notes: Phase 1 Stage 1 clinical pharmacokinetics of SC ZA co-administered with rHuPH20
- Assay type: in vivo, human
- recorded.conditions: human, serum, sc, 0.0776 mg/kg, Subj 70; ZA 0.0776 mg/kg SC; inf […]; PH20 2928 U; read-out: AUC (0-inf)
test.readout: AUC(0-inf) (ng·h/mL)
Provide only the numeric value, understood in ng·h/mL.

Q) Request the reported AUC(0-inf) associated with "O=P(O)(O)C(O)(Cn1ccnc1)P(=O)(O)O"
A) 690

---

- assay.notes: Pharmacokinetics of ZA in pig serum after IV or SC infusion with or without rHuPH20 (LC-MS-MS, non-compartmental analysis)
- Type: in vivo
- recorded.conditions: female, Yorkshire, pig, serum, subcutaneous, […], Time 2 h; pig ID 62; Study Group 2; SC; ZA […]; 50 mL, 8 min; rHuPH20 0 U/mL; read-out: Zoledronic Acid Serum Concentration
test.readout: concentration at 2 h
# include the unit after the value

Q) Any idea what concentration at 2 h was measured for "O=P(O)(O)C(O)(Cn1ccnc1)P(=O)(O)O" ?
A) 28.4 ng/mL

---

- assay.notes: Phase 1 Stage 1 clinical pharmacokinetics of SC ZA co-administered with rHuPH20
- Assay type: in vivo, human
- recorded.conditions: human, serum, sc, 0.0877 mg/kg, AUC (0-24 h), Subj 46; ZA 0.0877 mg/kg SC; inf 0.276 hr; PH20 12000 U
test.readout: AUC(0-t) (ng·h/mL)
# number only, unit ng·h/mL dropped from output

Q) Requested read-out: AUC(0-t). Entry: "O=P(O)(O)C(O)(Cn1ccnc1)P(=O)(O)O"
A) 656
